Organism: Rattus norvegicus
Test: In vitro inhibition of norepinephrine (NE) uptake in synaptosomal preparation of rat brain
Format: functional, organism-based
Reported IC50 values for a set of compounds
Just the number in nM, nothing appended.

# compound, reading_unit, IC50
measured = [
    ("C[C@@H]1CO[C@@](O)(c2cc(F)cc(F)c2)[C@H](C)N1", "nM", 70),
    ("CN(C)CCCN1c2ccccc2CCc2ccccc21", "nM", 40),
]

Now, please, on to the next compound.
Look up and report measured IC50 for this entry: CC(NC(C)(C)C)C(=O)c1cccc(Cl)c1 (stereo not drawn)
2400
